- Tested on: pentagastrin-stimulated acid secretion of the perfused rat stomach
- testDetails: Secretion-inhibiting action on the perfused rat stomach
- Format: in vivo
- assayContext: dose 3 μmol/kg i.d., anesthetized CD rat, intraduodenal administration
Consider the following compounds and their measured Inhibition of acid secretion (%) readings.
readoutName: Inhibition of acid secretion (%)

| smilesRecord | recordedResult |
| --- | --- |
| CCc1c(C)nc2c3c(c(C(=O)N(C)C)cn12)CC[C@H](c1ccccc1)O3 | <30% |
| Cc1nc2c3c(c(C(=O)N(C)C)cn2c1C)CC[C@H](c1ccccc1F)O3 | <50% |
| Cc1nc2c3c(c(C(=O)N4CCCC4)cn2c1C)CC[C@@H](c1ccccc1)O3 | 100% |
| Cc1nc2c3c(c(C(=O)N(C)C)cn2c1Br)CC[C@@H](c1ccccc1)O3 | >60% |

====

Inhibition of acid secretion (%) values for the compounds below.
- System: pentagastrin-stimulated acid secretion of the perfused rat stomach
- testDetails: Secretion-inhibiting action on the perfused rat stomach
- Type: in vivo
- assayContext: dose 3 μmol/kg i.d., anesthetized CD rat, intraduodenal administration
readoutName: Inhibition of acid secretion (%)

| smilesRecord | readoutName | recordedResult |
| --- | --- | --- |
| Cc1nc2c3c(c(C(=O)N(C)C)cn2c1C)CC[C@H](c1ccccc1)O3.O=C(O)C(O)C(O)C(=O)O | Inhibition of acid secretion (%) | <40% |
| Cc1nc2c3c(c(C(=O)N(C)C)cn2c1C)CC[C@H](c1ccccc1)O3 | Inhibition of acid secretion (%) | <40% |
| Cc1nc2c3c(c(C(=O)N(C)C)cn2c1Br)CC[C@H](c1ccccc1)O3 | Inhibition of acid secretion (%) | <40% |
| Cc1nc2c3c(c(C(=O)N4CCCC4)cn2c1C)CC[C@H](c1ccccc1)O3 | Inhibition of acid secretion (%) | <40% |
| Cc1nc2c3c(c(C(N)=O)cn2c1C)CC[C@H](c1ccccc1)O3 | Inhibition of acid secretion (%) | <40% |
| CCc1c(C)nc2c3c(c(C(=O)N(C)C)cn12)CC[C@@H](c1ccccc1)O3 | Inhibition of acid secretion (%) | >70% |
| COCc1cn2c(C)c(C)nc2c2c1CC[C@@H](c1ccccc1)O2 | Inhibition of acid secretion (%) | 100% |
| Cc1nc2c3c(c(C(=O)N(C)C)cn2c1C)CC[C@@H](c1cccs1)O3 | Inhibition of acid secretion (%) | 100% |
| CNC(=O)c1cn2c(C)c(C)nc2c2c1CC[C@H](c1ccccc1)O2 | Inhibition of acid secretion (%) | <40% |

This collection of values is drawn from patent US20070066674A1.
